Values of pIC50 for Chymotrypsinogen A (Bos taurus), collected from a number of published sources:
pIC50: −log10 of the molar value.
measuredEndpoint: pIC50

Report pIC50 for O=C(/C=C/c1ccccc1)N[C@@H](Cc1ccccc1)C(=O)CCl tested on Chymotrypsinogen A (Bos taurus).
5.06

1. CCOc1ccccc1C(=O)N[C@]1(OC)C(=O)N2C(C(=O)OCc3ccc(C(=O)O)cc3)=C(CSc3nnnn3C)CO[C@@H]21
2. CN1CCN(C(=O)c2ccc(S(=O)(=O)N3C(=O)CN(c4ccccc4)C3=O)cc2)CC1
3. CCOC(=O)[C@H](Cc1ccccc1)NC(=O)C(C)(C)C(NC(=O)c1ccc(C#N)cc1)C(C)C (stereo partly drawn)
4. O=C(Cc1ccccc1)N[C@@H](Cc1ccccc1)C(=O)CCl
Please give the order of these compounds when sorted by pIC50, largest value leading. Please write the labels in the order that was asked for.
1, 3, 2, 4
